Attribution: paper PMC8592027

As an illustration, consider measured Kd for molecules on galectin-8C (C-terminal domain) (Homo sapiens, UniProt O00214).
Sequence (O00214 187-317 limits assumed): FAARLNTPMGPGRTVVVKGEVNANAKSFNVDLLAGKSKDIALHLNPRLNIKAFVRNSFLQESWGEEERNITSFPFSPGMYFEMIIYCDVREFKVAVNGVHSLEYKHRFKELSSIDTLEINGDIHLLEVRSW
reported.metric: Kd (µM)

molecule: COC(=O)c1ccc2nc(CO[C@@H]3C=CO[C@H](CO)[C@@H]3O)[nH]c2c1 [5c]
assay.system: galectin-8C (C-terminal domain) (Homo sapiens, UniProt O00214)
unit.tag: µM
Kd: 3000
//
molecule: O=C(O)c1ccc2ccc(CO[C@@H]3C=CO[C@H](CO)[C@@H]3O)nc2c1 [compound 9]
assay.system: galectin-8C (C-terminal domain) (Homo sapiens, UniProt O00214)
unit.tag: µM
Kd: 4700

1 = OC[C@H]1OC=C[C@@H](O)[C@H]1O [compound 3, D-galactal]
2 = CCOC(=O)c1ccc2c(c1)nc(CO[C@@H]1C=CO[C@H](CO)[C@@H]1O)n2C [5b]
Q: When the recorded Kd values are compared, which is smaller: that of 1 or that of 2 ? Write down the label attached to your selection.
Ans: 2
